- Measured On: T1, AFP158/HLA-A*02:01 complex (human)
- T1 construct: biotinylated on the BSP by BirA for ELISA and panning; also called biotinylated AFP158/HLA-A*02:01 complex; Bio-AFP158
- Protocol Summary: SPR; vs AS170036 VL1VH1;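 note: crude scFv captured on sensor chip, peptide–HLA complex flowed over at several concentrations, KD estimated from association and dissociation kinetic rates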
What Affinity increase was measured for each of the following?
Output spec: scalar in fold, unitless text.

Data point: AS170036 VL1VH1 HD102W (scFv) scFv: QSALTQPRSVSGSPGQSVTISCAGTSSDVGSENYVSWYQQHPGKAPKLMIYQVNKRASGVPDRFSGSKSGNTASLTISGLQAEDEADYYCASYRSSDHNIVFGGGTKLTVLGGGGSGGGGSGGGGSEVQLVESGGGLVQPGGSLRLSCAASGFTFSSYAMSWVRQAPGKGLEWVSTINSGTGSPYYADSVKGRFTISRDNSKNTLYLQMNSLRAEDTAVYYCAKNFFWGSWFLGPPAMDYWGQGTLVTVSSHHHHHH ; Affinity increase = 0.1

Recorded result, AS170036 VL1VH1 HG56D (scFv) scFv: QSALTQPRSVSGSPGQSVTISCAGTSSDVGSENYVSWYQQHPGKAPKLMIYQVNKRASGVPDRFSGSKSGNTASLTISGLQAEDEADYYCASYRSSDHNIVFGGGTKLTVLGGGGSGGGGSGGGGSEVQLVESGGGLVQPGGSLRLSCAASGFTFSSYAMSWVRQAPGKGLEWVSTINSGTDSPYYADSVKGRFTISRDNSKNTLYLQMNSLRAEDTAVYYCAKNFFDGSWFLGPPAMDYWGQGTLVTVSSHHHHHH , Affinity increase: 1

The binder listed as AS170036 VL1VH1-VHG108N (scFv) scFv: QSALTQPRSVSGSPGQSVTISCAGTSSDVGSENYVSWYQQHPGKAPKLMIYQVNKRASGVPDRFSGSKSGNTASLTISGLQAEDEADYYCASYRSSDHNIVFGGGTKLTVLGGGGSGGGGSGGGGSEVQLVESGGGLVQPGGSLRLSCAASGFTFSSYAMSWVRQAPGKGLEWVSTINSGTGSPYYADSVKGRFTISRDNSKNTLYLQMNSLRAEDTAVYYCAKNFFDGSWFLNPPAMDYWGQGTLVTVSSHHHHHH shows Affinity increase equal to 2

Sourced from patent US20240279318A1
